Tested on: recombinant NL4-3 virus (nef section replaced with Renilla luciferase gene) in MT-2 cells
Test: whole plant or invertebrate
Format: cell-based, HIV
Settings: NL43, luciferase activity in MT-2 cells infected 4-5 days with recombinant NL4-3 virus, read-out: EC50
Structures can show the parent of a compound that is named as a salt.
measurement_label: pEC50
For clarity, pEC50 is expressed as the negative log10 of concentration in mol/L.

Query pEC50 on recombinant NL4-3 virus (nef section replaced with Renilla luciferase gene) in MT-2 cells for Cc1ccccc1S(=O)(=O)NC(=O)N[C@@H](Cc1cc(F)cc(F)c1)c1ncccc1-c1ccnc(F)c1C [Example 126, TFA]
5.82

Also need "COC(=O)Nc1ccc(-n2ccnc2[C@H](Cc2ccccc2)NC(=O)NS(=O)(=O)c2cccc(Cl)c2)cc1" , thanks.
6.82

Same lookup for "COC(=O)Nc1ccc(-n2ccnc2[C@H](Cc2ccccc2)NC(=O)NS(=O)(=O)c2cccc3ccccc23)cc1" , please.
7.00

Next entry: "Cc1ccccc1S(=O)(=O)NC(=O)N[C@@H](Cc1ccccc1)c1nccn1-c1ccc(Br)cc1"
6.72

Would you kindly repeat that for "COc1ccc(-n2ccnc2[C@H](Cc2ccccc2)NC(=O)NS(=O)(=O)c2ccccc2Cl)cc1" ?
7.30

Try "Cc1ccccc1S(=O)(=O)NC(=O)N[C@@H](Cc1ccccc1)c1nccn1-c1ccc2ccccc2c1" next.
7.40

Query "COC(=O)Nc1ccc(-n2ccnc2[C@@H](Cc2ccccc2)NC(=O)NS(=O)(=O)c2ccccc2C)cc1" next
5.85
